outcomeMeasure: melting point

Recorded melting point, per entry:
| molecule | melting point |
| --- | --- |
| OC1CCc2cccc(Nc3cc(-c4ccc(C(F)(F)F)cc4)ncn3)c2C1 (centres unmarked) [Example 1] | 178 to 179 °C |
| O[C@@H]1Cc2cccc(Nc3cc(-c4ccc(C(F)(F)F)cc4)ncn3)c2C[C@H]1O (racemic) [Example 28] | 286 to 289 °C |
| OC1CCc2c(Br)ccc(Nc3cc(-c4ccc(C(F)(F)F)cc4)ncn3)c2C1 (centres unmarked) [Example 37] | 192 °C |
| O[C@@H]1Cc2c(cccc2Nc2cc(-c3ccc(C(F)(F)F)cc3)ncn2)C[C@@H]1O (racemic) [Example 30] | 231 to 232 °C |

Quick one: melting point of Nc1cc(C(F)(F)F)ccc1-c1cc(Nc2cccc3c2C[C@@H](O)[C@@H](O)C3)ncn1 (racemic) [Example 31] ?
233 to 234 °C
